The values you see were collected from the supplement of paper PMC10567573.

B1: CDC25B (parent)
chain: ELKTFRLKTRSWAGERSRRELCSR

# Variants of: B1
# ASSAY_INFO: protein stability index of a GFP-peptide fusion (GPS, HEK-293T) (PSI 1-6); higher = more stable;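 also: lentivirally expressed fusions sorted by FACS into six bins by GFP to DsRed ratio, PSI derived from sequencing read proportions per bin multiplied by bin number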
# CONDITION_SUMMARY: c terminus: a fixed tail appended
MEASURED_PROPERTY: protein stability index
# print the numeric value only

>>> assay_value("C22F")
3.01

Challenge: Fill in: protein stability index of R24L is ___
Response given: 3

Challenge: Try this variant too: A13M
Response given: 2.92
